- System: OVCAR-3
- method notes: NCI tumour cell line growth inhibition, 48 h
The source made the active and inactive calls. Cut-off read from the data, not from the text of the source: active = GI50 up to about 1.1 µM and inactive = higher.
Possible outcomes: YES for active, NO for inactive

- Nc1ncnn2c(C3OC(CO)C(O)C3O)ccc12 (stereo unspecified): YES
- Cc1ccc(NC(=O)CCC(=O)C(C#N)c2ccccc2)cc1C (stereo unspecified): NO
- C=C(Cl)CN1c2ccccc2C=Cc2ccccc21: NO
- CCC/C=C/C=C/C(=O)OC1C(C)C2(O)C3C=C(C)C(=O)C3CC(COC(C)=O)=CC2C2C(C)(C)C12OC(=O)C(C)C (stereo unspecified): NO
- O=C(CC(=O)N1N=C(N2c3ccccc3Sc3ccccc32)CC1c1ccccc1)Nc1ccc(Cl)cc1 (stereo unspecified): NO
- CN1C(=O)CCC1(O)C1C=CC=CC1 (stereo unspecified): NO
- COc1ccc(CC2NC(=O)/C=C/CC(C(C)C3OC3c3ccccc3)OC(=O)C(CC(C)C)OC(=O)C(C)CNC2=O)cc1Cl (stereo unspecified): YES
- Oc1ccc(-c2ccccc2)nn1: NO
- COC(=O)[C@]12CC=C3O[C@@H]4OC5(CCCCC5)O[C@@H]4[C@H]3C1C(=O)C=CC2=O (stereo partly specified): NO
- CCO/N=C(/N)c1ncn(Cc2ccccc2)c1NCC(OCC)OCC: NO
- COc1ccc(/N=N/c2c(C)c(C#N)c(=S)n(C3OC(COC(C)=O)C(OC(C)=O)C(OC(C)=O)C3OC(C)=O)c2-c2ccccc2)cc1 (stereo unspecified): NO
